Source of measurements: ChEMBL document CHEMBL3885881

Organism: Rattus norvegicus
assay explanation: DrugMatrix - Regimen: Daily Repeat
Assay type: toxicity, organism-based, Sprague-Dawley
Design: regimen Daily Repeat, gender Male, age 6-8 weeks
assay conditions: in vivo, sc, 0 mg/kg, 120 h, tissue Plasma, route subcutaneous, dose level Control, time 5 day, […]
observed property: POTASSIUM
Quick note: unit goes after the number.

In the examples that follow, each entry is paired with its recorded POTASSIUM.
[[record]]
compound = "CCN(CC)CCOCCC1=CCC2CC1C2(C)C (stereo not given)"
observed_value = "6.69 MEQ/L"

[[record]]
compound = "CCC(=O)O[C@]1(C(=O)CCl)[C@@H](C)C[C@H]2[C@@H]3CCC4=CC(=O)C=C[C@]4(C)[C@@]3(F)[C@@H](O)C[C@@]21C [CLOBETASOL PROPIONATE]"
observed_value = "6.05 MEQ/L"

[[record]]
compound = "Oc1c(Cl)cc(Cl)c(Cl)c1Cc1c(O)c(Cl)cc(Cl)c1Cl"
observed_value = "6.59 MEQ/L"


Ask: Need POTASSIUM of CC(C)(C)CC(C)(C)c1ccc(OCCOCC[N+](C)(C)Cc2ccccc2)cc1.[Cl-] [BENZETHONIUM CHLORIDE] , thanks.
Reply: 6.59 MEQ/L

Ask: Need POTASSIUM of `O=C(Nc1ccc(Br)cc1)c1cc(Br)cc(Br)c1O` , thanks.
Reply: 6.05 MEQ/L

---

Organism: Rattus norvegicus
assay explanation: DrugMatrix - Regimen: Daily Repeat
Type: toxicity, organism-based, Sprague-Dawley
Parameters: regimen Daily Repeat, gender Male, age 6-8 weeks
assay conditions: in vivo, po, 0 mg/kg, 72 h, tissue Blood, route oral GAVAGE, dose level Control, time 3 day, vehicle .5 % CMC
observed property: EOSINOPHIL (%)
Only the number, expressed in %, is required.

In the examples that follow, each entry is paired with its recorded EOSINOPHIL.
[[record]]
compound = "COc1ccc(C2C(=O)c3ccccc3C2=O)cc1"
observed_property = "EOSINOPHIL"
observed_value = 0

[[record]]
compound = "O=C1Nc2ccc(Cl)cc2C(c2ccccc2Cl)=NC1O (stereo not given)"
observed_property = "EOSINOPHIL"
observed_value = 1


Ask: Need EOSINOPHIL of `Clc1ccccc1CN1CCc2sccc2C1` , thanks.
Reply: 0

---

Species: Rattus norvegicus
assay explanation: DrugMatrix - Regimen: Daily Repeat
Type: toxicity, organism-based, Sprague-Dawley
Design: regimen Daily Repeat, gender Male, age 6-8 weeks
assay conditions: in vivo, sc, 0 mg/kg, 72 h, tissue Plasma, route subcutaneous, dose level Control, time 3 day, […]
observed property: CARBON DIOXIDE (mmol/L)
Only the number, expressed in mmol/L, is required.

[[record]]
compound = "CCC(=O)O[C@]1(C(=O)CCl)[C@@H](C)C[C@H]2[C@@H]3CCC4=CC(=O)C=C[C@]4(C)[C@@]3(F)[C@@H](O)C[C@@]21C [CLOBETASOL PROPIONATE]"
observed_property = "CARBON DIOXIDE"
unit_info = "mmol/L"
observed_value = 26.17

[[record]]
compound = "Oc1c(Cl)cc(Cl)c(Cl)c1Cc1c(O)c(Cl)cc(Cl)c1Cl"
observed_property = "CARBON DIOXIDE"
unit_info = "mmol/L"
observed_value = 23

[[record]]
compound = "CCN(CC)CCOCCC1=CCC2CC1C2(C)C (stereo not given)"
observed_property = "CARBON DIOXIDE"
unit_info = "mmol/L"
observed_value = 33.5


Ask: Need CARBON DIOXIDE of CC(C)(C)CC(C)(C)c1ccc(OCCOCC[N+](C)(C)Cc2ccccc2)cc1.[Cl-] [BENZETHONIUM CHLORIDE] , thanks.
Reply: 23

Ask: Need CARBON DIOXIDE of `O=C(Nc1ccc(Br)cc1)c1cc(Br)cc(Br)c1O` , thanks.
Reply: 26.17
